Data origin: PubChem BioAssay AID504382

Assay: IANBD-channel fluorescence artefacts in buffer – biochemical, artefact control for cardiac RTF calcium sensitizer project, confirmation (AID 504382)
Conditions: IANBD fluorescence interference counterscreen, EC20 Ca2+, at 7.2 µM, stronger effect = higher value, scaled: EC20 calcium 0, EC100 calcium 100
The whole screen tested about 2,500 compounds, of which about 460 (18%) were called active. Not all results are given here.
Recorded measurements of fluorescence artifact activation, one per entry
Give the quantity in %, number only.

Compound: Cc1ccc(C(=O)NNC(=O)CSc2nnc(-c3ccncc3)n2-c2ccc(C)cc2)cc1
Unit string: %
fluorescence artifact activation: 0.09

Compound: COc1ccc(Nc2nc3ccc(C)cc3cc2C#N)c(OC)c1
Unit string: %
fluorescence artifact activation: 0.04

Compound: Cc1cc(C)c(C(N)=O)c(Nc2ccc(F)cc2)n1
Unit string: %
fluorescence artifact activation: 0.09

Compound: Cc1cc(C)n(-c2nc3ccccc3nc2Nc2ccc3[nH]c(=O)[nH]c3c2)n1
Unit string: %
fluorescence artifact activation: 4.66

Compound: O=C(Cn1ncc2c3ccccc3n(Cc3cccc(Cl)c3)c2c1=O)NCC1CCCO1 (stereo not given)
Unit string: %
fluorescence artifact activation: 0.38

Compound: COc1ccc(-c2cc(C(F)(F)F)c3c(N)c(C(=O)NCCSC)sc3n2)cc1
Unit string: %
fluorescence artifact activation: 0.08

Compound: Cc1c(C(=O)NCc2ccco2)cccc1[N+](=O)[O-]
Unit string: %
fluorescence artifact activation: 4.18

Compound: CC(=O)c1nnn(-c2nc(N3CCCC3)nc(N(c3ccccc3)c3ccccc3)n2)c1C
Unit string: %
fluorescence artifact activation: 0.23

Compound: CC1(C)CC(=O)C(C=Nc2ccc(C(=O)c3ccccc3)cc2N=CC2=C(O)CC(C)(C)CC2=O)=C(O)C1
Unit string: %
fluorescence artifact activation: 0.03

query: Requested read-out: fluorescence artifact activation. Entry: CC(=O)OCC[N+](C)(C)C
result: 13.6

----------
Test: IANBD-channel fluorescence artefacts in buffer – biochemical, artefact control for cardiac RTF calcium sensitizer project, confirmation (AID 504382)
Settings: IANBD fluorescence interference counterscreen, EC20 Ca2+, at 7.2 µM, scaled: EC20 calcium 0, EC100 calcium 100
Hit rate of the full screen: of about 2,500 compounds, about 460 (18%) were called active.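 The calls were made as follows: active = mean activation above a cutoff of low control average plus 3 SD from the earlier screen (cut at about 12% in these data); inactive = the rest.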 A selection follows.
Give one outcome, nothing more. List: 1 for active, 0 for inactive

These solved cases illustrate the format of a correct answer.
Compound: Cc1ccc(/C=C2\Oc3c(ccc(O)c3CN3CCN(C)CC3)C2=O)cc1
Label: 0
--
Compound: Cc1ccc2c(CN3CCCc4ccccc43)cc(=O)oc2c1C
Label: 0
--
Compound: Cc1cc(Br)ccc1SCC(=O)OCC(=O)Nc1ccccc1C#N
Label: 0
--
Compound: CCc1ccc[n+](-c2[nH]c(=O)sc2/C=N/NC([S-])=Nc2ccccc2)c1
Label: 1

query: # lookup: test call for Cc1occc1C(=O)N=Nc1c(O)n(C)c2ccccc12
result: 0

query: # lookup: test call for COCCn1c(=NC(=O)/C=C/c2ccccc2)sc2cc(NC(C)=O)ccc21
result: 0

query: # lookup: test call for Oc1[nH]c2ccccc2c1N=Nc1ccccc1Cl
result: 0

query: # lookup: test call for CC(=O)c1cccc(Nc2cc(C)nc3ccc(C)cc23)c1
result: 0

query: # lookup: test call for N#CC1=C(N)OC2=C(CC/C2=C\c2ccccc2)C1c1ccccc1 (stereo not drawn)
result: 0

query: # lookup: test call for Cc1ccc([C@@H]2C3COCC=C3C(C#N)=C(N)C2(C#N)C#N)o1 (stereo partly drawn)
result: 0

query: # lookup: test call for Cc1cc[n+](-c2[nH]c(=O)sc2/C=N/NC([S-])=Nc2ccccc2)cc1C
result: 0

query: # lookup: test call for CCN1C(=O)c2cccc3c(N)ccc(c23)C1=O
result: 0
